Molecular target: 5-hydroxytryptamine receptor 2A (Homo sapiens)
Sequence (P28223 whole entry): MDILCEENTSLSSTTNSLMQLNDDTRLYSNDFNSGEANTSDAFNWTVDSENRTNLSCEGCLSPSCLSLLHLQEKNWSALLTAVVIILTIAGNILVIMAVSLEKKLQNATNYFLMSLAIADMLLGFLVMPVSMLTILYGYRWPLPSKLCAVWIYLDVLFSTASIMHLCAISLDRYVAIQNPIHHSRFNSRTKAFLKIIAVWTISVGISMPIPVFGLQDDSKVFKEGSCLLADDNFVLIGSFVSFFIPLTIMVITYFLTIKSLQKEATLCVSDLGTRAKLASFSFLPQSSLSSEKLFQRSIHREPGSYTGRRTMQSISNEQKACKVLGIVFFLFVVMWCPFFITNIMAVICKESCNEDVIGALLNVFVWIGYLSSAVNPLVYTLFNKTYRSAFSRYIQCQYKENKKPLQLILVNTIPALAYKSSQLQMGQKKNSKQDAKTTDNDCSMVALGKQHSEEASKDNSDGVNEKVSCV
Experiment: Displacement of [3H]Ketanserin from human 5HT2A receptor at 10 uM
MEASURED ATTRIBUTE: inhibition (%)

O=C(NC1CCCCC1)N1OCC2CSc3ccc(F)cc3C21 (stereo unspecified)    6.2

I: O=C(NC1CCCCC1)N1OCC2COc3ccccc3C21 (stereo unspecified)
II: O=C(Nc1ccccc1)N1OCC2CSc3ccc(F)cc3C21 (stereo unspecified)
III: CC(C)NC(=O)N1OCC2CSc3ccc(F)cc3C21 (stereo unspecified)
IV: CC(C)(C)NC(=O)N1OCC2COc3ccccc3C21 (stereo unspecified)
V: CC(C)NC(=O)N1OCC2COc3ccccc3C21 (stereo unspecified)
Query: Ascending sort, inhibition. Please write the labels in the order that was asked for.
Reply: V, III, I, IV, II
